tgt: CFTR ΔF508 mutant (Homo sapiens, UniProt P13569, DEL508-508)
Construct: expressed in transfected cells; host or cells: CFBE41o- (adenoviral transduction)
Sequence (P13569 with tags, fused parts or gaps DEL508-508): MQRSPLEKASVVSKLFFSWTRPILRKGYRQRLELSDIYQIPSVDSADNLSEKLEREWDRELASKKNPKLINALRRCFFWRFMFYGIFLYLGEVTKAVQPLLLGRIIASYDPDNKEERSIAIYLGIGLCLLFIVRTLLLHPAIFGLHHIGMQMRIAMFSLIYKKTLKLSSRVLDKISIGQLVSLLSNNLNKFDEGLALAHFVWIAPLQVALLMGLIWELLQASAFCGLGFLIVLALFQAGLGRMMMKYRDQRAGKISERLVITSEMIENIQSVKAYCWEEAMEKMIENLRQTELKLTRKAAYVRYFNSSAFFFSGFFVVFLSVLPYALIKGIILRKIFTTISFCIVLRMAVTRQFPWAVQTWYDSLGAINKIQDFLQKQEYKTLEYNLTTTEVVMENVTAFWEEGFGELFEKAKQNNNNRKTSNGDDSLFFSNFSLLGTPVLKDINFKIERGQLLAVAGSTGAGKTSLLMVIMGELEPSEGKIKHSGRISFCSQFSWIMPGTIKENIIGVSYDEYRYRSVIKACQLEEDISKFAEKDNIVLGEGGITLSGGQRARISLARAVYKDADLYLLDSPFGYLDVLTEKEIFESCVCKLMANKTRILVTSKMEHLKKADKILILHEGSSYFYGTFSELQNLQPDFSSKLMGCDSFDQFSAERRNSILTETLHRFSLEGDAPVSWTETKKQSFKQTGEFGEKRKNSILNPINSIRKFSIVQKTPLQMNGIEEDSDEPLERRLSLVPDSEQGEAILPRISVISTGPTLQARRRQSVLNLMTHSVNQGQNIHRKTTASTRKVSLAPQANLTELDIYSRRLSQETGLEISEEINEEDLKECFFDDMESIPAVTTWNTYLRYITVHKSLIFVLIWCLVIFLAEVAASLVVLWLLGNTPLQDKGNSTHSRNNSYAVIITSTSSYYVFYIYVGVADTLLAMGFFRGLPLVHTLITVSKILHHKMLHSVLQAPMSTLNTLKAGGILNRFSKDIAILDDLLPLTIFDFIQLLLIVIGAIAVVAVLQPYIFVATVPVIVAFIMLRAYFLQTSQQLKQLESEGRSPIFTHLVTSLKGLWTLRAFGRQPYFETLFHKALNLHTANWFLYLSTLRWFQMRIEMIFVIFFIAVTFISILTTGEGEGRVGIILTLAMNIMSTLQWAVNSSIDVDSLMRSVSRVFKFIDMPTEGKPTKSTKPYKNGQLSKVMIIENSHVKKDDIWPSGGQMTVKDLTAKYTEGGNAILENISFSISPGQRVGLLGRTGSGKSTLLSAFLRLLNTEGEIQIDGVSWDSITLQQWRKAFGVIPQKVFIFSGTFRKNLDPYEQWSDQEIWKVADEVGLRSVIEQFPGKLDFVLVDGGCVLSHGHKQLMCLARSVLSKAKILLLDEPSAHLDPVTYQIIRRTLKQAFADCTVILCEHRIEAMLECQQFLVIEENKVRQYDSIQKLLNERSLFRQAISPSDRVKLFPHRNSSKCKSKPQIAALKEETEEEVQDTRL
assay_notes: YFP-halide influx assay for the CFTR-ΔF508 mutation (96 well, CFBE41o- cells)
Format: cell-based
run_conditions: compounds of the invention, 96 well, forskolin 10.67 μM, read-out: EC50 measured by YFP-halide influx assay for the CFTR-ΔF508
recorded_metric: EC50 (nM)

[
  {
    "compound": "CC1(C)Cc2c(sc(NC(=O)c3n[nH]cc3Br)c2C(N)=O)C(C)(C)O1 [Compound 33]",
    "tgt": "CFTR ΔF508 mutant (Homo sapiens, UniProt P13569, DEL508-508)",
    "EC50 [nM]": 4
  }
]

A. CC1(C)Cc2c(sc(NC(=O)c3ccccc3C(F)(F)F)c2C(N)=O)C(C)(C)O1 [Compound 5]
B. COC(=O)C1(C(=O)Nc2sc3c(c2C(N)=O)CC(C)(C)OC3(C)C)CC1 [Compound 12]
Select one. Lower EC50: A or B // respond with label for picked entry
A

P. CC1(C)Cc2c(sc(NC(=O)c3ccc(F)cc3C(F)(F)F)c2C(N)=O)C(C)(C)O1 [Compound 7]
Q. CC1(C)Cc2c(sc(NC(=O)C3(CO)CC3)c2C(N)=O)C(C)(C)O1 [Compound 9]
P or Q : whose EC50 is greater? Your answer should be the label attached to the chosen record.
P
(P: 60.2 nM, Q: 28 nM)
